Source of measurements: ChEMBL document CHEMBL4732071

- TARGET ENTITY: Protein deacetylase HDAC6 (Homo sapiens) (UniProt Q9UBN7)
- Sequence (Q9UBN7 whole entry): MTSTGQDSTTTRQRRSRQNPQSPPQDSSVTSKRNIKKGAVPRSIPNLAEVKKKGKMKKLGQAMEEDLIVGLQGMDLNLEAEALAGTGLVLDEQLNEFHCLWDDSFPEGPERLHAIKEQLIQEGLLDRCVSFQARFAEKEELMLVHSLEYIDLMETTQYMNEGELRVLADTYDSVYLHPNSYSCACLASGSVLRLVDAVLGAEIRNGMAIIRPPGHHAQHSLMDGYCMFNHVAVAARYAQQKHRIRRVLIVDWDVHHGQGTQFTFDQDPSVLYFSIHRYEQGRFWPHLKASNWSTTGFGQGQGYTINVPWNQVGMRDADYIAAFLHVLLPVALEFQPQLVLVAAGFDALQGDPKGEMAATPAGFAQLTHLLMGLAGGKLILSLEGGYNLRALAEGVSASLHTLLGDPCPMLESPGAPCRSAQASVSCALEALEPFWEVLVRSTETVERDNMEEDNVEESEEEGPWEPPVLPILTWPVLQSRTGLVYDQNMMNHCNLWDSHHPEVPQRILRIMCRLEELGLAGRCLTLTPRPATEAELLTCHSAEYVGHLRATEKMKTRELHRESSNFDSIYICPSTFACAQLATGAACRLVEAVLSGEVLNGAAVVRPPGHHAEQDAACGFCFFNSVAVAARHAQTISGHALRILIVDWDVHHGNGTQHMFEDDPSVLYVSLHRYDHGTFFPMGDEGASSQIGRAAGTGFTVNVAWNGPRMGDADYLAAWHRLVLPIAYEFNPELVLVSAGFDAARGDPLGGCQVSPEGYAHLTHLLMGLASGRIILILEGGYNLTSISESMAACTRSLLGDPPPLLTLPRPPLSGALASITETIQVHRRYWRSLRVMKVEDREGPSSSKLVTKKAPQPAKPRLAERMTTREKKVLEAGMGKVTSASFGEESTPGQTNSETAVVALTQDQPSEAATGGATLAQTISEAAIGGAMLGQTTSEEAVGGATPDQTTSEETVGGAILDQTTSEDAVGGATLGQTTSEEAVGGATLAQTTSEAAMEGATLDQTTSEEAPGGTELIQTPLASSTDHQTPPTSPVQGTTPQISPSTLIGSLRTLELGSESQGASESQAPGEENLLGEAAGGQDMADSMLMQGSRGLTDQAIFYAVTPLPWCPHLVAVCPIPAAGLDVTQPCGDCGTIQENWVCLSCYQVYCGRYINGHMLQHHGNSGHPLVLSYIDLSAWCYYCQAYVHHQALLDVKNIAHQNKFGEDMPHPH
- ASSAY INFO: Inhibition of HDAC6 in human MV4-11 cells assessed as increase in acetylated alpha-tubulin at 10 to 1000 nM incubated for 24 hrs by Western blot analysis
- Type: cell-based
- RECORDED CONDITIONS: dose 10-1000 nM
The source made the active and inactive calls. The rule behind the calls is not given here.
Labels: active, inactive

INSERT INTO measurements (sample_smiles, label) VALUES
  ('Cn1cc(-c2ccccc2Oc2ccccc2)c2cc(C(=O)NCCCCC(=O)NO)[nH]c2c1=O', 'inactive'),
  ('Cn1cc(-c2ccccc2Oc2ccccc2)c2cc(C(=O)NCc3ccc(C(=O)NO)cc3)[nH]c2c1=O', 'active'),
  ('Cn1cc(-c2ccccc2Oc2ccccc2)c2cc(C(=O)NCc3ccc(C(=O)Nc4ccccc4N)cc3)[nH]c2c1=O', 'inactive'),
  ('Cc1cc(F)cc(C)c1Oc1ccc(C(C)(C)O)cc1-c1cn(C)c(=O)c2[nH]c(C(=O)NCCCCCCC(=O)NO)cc12', 'active'),
  ('CC(C)Oc1ccc(C(C)(C)O)cc1-c1cn(C)c(=O)c2[nH]c(C(=O)NCCCCCCC(=O)NO)cc12', 'active');

###

These compounds were tested on Histone deacetylase 1 (Homo sapiens, UniProt Q13547); IC50 is the recorded read-out.
Sequence (Q13547 whole entry): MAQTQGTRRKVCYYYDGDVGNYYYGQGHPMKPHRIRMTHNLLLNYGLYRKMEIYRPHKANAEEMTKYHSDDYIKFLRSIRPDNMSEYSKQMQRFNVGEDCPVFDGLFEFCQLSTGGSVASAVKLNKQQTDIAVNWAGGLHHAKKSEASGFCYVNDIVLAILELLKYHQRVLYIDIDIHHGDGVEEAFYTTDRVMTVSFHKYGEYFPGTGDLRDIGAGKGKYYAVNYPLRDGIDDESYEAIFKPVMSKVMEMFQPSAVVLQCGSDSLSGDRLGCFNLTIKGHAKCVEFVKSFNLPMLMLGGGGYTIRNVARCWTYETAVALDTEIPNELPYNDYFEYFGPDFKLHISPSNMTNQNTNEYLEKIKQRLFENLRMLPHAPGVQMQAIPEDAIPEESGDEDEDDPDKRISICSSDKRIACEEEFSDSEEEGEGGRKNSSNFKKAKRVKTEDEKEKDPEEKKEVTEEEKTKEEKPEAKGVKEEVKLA
PROPERTY LABEL: IC50

INSERT INTO assay_data (sample_smiles, property_label, result) VALUES
  ('Cn1cc(-c2cc(C(C)(C)O)ccc2Oc2ccc(F)cc2F)c2cc(C(=O)NCc3ccc(C(=O)Nc4ccccc4N)cc3)[nH]c2c1=O', 'IC50', '164 nM'),
  ('Cn1cc(-c2ccc(C(F)(F)F)cc2)c2cc(C(=O)NCc3ccc(C(=O)Nc4ccccc4N)cc3)[nH]c2c1=O', 'IC50', '240 nM'),
  ('CC(C)Oc1ccccc1-c1cn(C)c(=O)c2[nH]c(C(=O)NCc3ccc(C(=O)Nc4ccccc4N)cc3)cc12', 'IC50', '116 nM'),
  ('CC(C)Oc1ccc(C(C)(C)O)cc1-c1cn(C)c(=O)c2[nH]c(C(=O)NCc3ccc(C(=O)Nc4ccccc4N)cc3)cc12', 'IC50', '59.7 nM'),
  ('Cn1cc(-c2cccc(C(C)(C)O)c2)c2cc(C(=O)NCc3ccc(C(=O)Nc4ccccc4N)cc3)[nH]c2c1=O', 'IC50', '28.1 nM');

###

- TARGET ENTITY: Bromodomain-containing protein 4 (Homo sapiens, UniProt O60885)
- ASSAY INFO: Inhibition of His-tagged BRD4 bromodomain 1 (unknown origin) using [Lys (5,8,12,16) Ac] H4(1-21) as substrate by fluorescence based assay
The compounds listed here are annotated with their IC50.
PROPERTY LABEL: IC50

INSERT INTO results (sample_smiles, target_entity, result) VALUES
  ('Cn1cc(-c2ccccc2Oc2ccccc2)c2cc(C(=O)NCCCCC(=O)Nc3ccccc3N)[nH]c2c1=O', 'Bromodomain-containing protein 4 (Homo sapiens, UniProt O60885)', '0.073 µM'),
  ('COc1cccc(-c2cn(C)c(=O)c3[nH]c(C(=O)NCc4ccc(C(=O)Nc5ccccc5N)cc4)cc23)c1', 'Bromodomain-containing protein 4 (Homo sapiens, UniProt O60885)', '0.0301 µM'),
  ('CC(C)Oc1ccccc1-c1cn(C)c(=O)c2[nH]c(C(=O)NCc3ccc(C(=O)Nc4ccccc4N)cc3)cc12', 'Bromodomain-containing protein 4 (Homo sapiens, UniProt O60885)', '0.0228 µM'),
  ('CC(C)Oc1ccc(C(C)(C)O)cc1-c1cn(C)c(=O)c2[nH]c(C(=O)NCCCCCCC(=O)NO)cc12', 'Bromodomain-containing protein 4 (Homo sapiens, UniProt O60885)', '0.0295 µM');
